Attribution: patent US20240217966A1

# TARGET_UNDER_TEST: Human GLP-1 receptor (Homo sapiens)
# Construct: expressed in transfected cells
# PROCEDURE_DETAILS: Measurement of GLP-1 receptor agonist activity (cAMP assay)
# Format: cell-based
# EXPERIMENTAL_CONDITIONS: hGLP-1R/CHO-K1 cells, cAMP increase, 37° C. 1 hour
MEASURED_PARAMETER: pEC50
Note on pEC50: it is the negative log10 of concentration, concentration in mol/L.

pEC50 lookup needed for CC(c1nc2ccc(C(=O)O)cc2n1C[C@@H]1CCO1)N1CCc2cc(C(F)(F)F)c(OCc3ccc(Cl)cc3F)cc2C1 (mixture of isomers) , thanks.
7.03

pEC50 lookup needed for O=C(O)c1ccc2nc(CN3CCc4cc(C(F)(F)F)c(OCc5ccc(Cl)cc5F)cc4C3)n(C[C@@H]3CCO3)c2c1 , thanks.
8.34

pEC50 lookup needed for C[C@H]1c2cc(OCc3ccc(Cl)cc3Cl)c(C(F)(F)F)cc2CCN1Cc1nc2ccc(C(=O)O)c(F)c2n1C[C@@H]1CCO1 , thanks.
9.56

----------
# TARGET_UNDER_TEST: Human GLP-1 receptor (Homo sapiens, UniProt P43220)
# Construct: expressed in transfected cells
# Sequence (P43220 24-463): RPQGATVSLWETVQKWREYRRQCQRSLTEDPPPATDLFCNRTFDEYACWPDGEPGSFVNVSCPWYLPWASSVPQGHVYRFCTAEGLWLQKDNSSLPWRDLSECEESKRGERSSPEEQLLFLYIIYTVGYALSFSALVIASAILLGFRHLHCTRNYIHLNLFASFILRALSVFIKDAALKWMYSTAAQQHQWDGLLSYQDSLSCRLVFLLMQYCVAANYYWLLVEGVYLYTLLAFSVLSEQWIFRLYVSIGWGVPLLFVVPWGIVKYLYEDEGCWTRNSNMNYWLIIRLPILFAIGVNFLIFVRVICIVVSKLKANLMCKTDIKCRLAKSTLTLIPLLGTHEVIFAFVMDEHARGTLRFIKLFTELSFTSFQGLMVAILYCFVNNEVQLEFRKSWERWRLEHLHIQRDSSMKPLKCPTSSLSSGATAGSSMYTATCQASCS
# PROCEDURE_DETAILS: Measurement of GLP-1 receptor agonist activity (cAMP assay)
# Format: cell-based
# EXPERIMENTAL_CONDITIONS: cAMP increase in GLP-1 R/CHO-K1 cells; 2 nM human GLP-1 (7-36) = 100%, DMSO only = 0%
pEC50: −log10 of the molar value.
Use 9 as the dividing line for pEC50, with the line itself on the satisfied side and lower values as not satisfied.

Quick check, pEC50 >= 9? C[C@H]1c2nc(OCc3ccc(Cl)cc3Cl)c(C(F)(F)F)cc2CCN1Cc1nc2ccc(C(=O)O)nc2n1C[C@@H]1CCO1 [Compound I-351]
satisfied

Quick check, pEC50 >= 9? COc1cc(C(=O)O)cc2c1nc(CN1CCc3cc(C(F)(F)F)c(OCc4ccc(Cl)cc4F)nc3C1)n2C[C@@H]1CCO1 [Compound I-390]
satisfied

Quick check, pEC50 >= 9? O=C(O)c1ccc2nc(CN3CCc4cc(C(F)(F)F)c(OCc5ccc(Cl)cn5)nc4C3)n(C[C@@H]3CCO3)c2c1 [Compound I-263]
not satisfied

Quick check, pEC50 >= 9? COc1ccc(COc2cc3c(cc2Cl)CCN(Cc2nc4ccc(C(=O)O)c(F)c4n2C[C@@H]2CCO2)[C@H]3C)cc1 [Compound I-318]
not satisfied

Quick check, pEC50 >= 9? COc1cc(C(=O)O)cc2c1nc(CN1CCc3cc(C(F)(F)F)c(OCc4ccccc4Cl)nc3[C@@H]1C)n2C[C@@H]1CCO1 [Compound I-281]
satisfied

Quick check, pEC50 >= 9? C[C@H]1c2cc(OCc3c(F)cc(Cl)cc3F)c(Cl)cc2CCN1Cc1nc2c(F)cc(C(=O)O)cc2n1C[C@@H]1CCO1 [Compound I-339]
satisfied

Quick check, pEC50 >= 9? O=C(O)c1ccc2nc(CN3CCc4cc(C(F)(F)F)c(OCc5cc(F)c(Cl)cc5F)nc4C3)n(C[C@@H]3CCO3)c2c1F [Compound I-299]
satisfied

----------
Kindly state pEC50 for each of the entries shown.
# TARGET_UNDER_TEST: Human GLP-1 receptor (Homo sapiens, UniProt P43220)
# Construct: expressed in transfected cells
# PROCEDURE_DETAILS: Measurement of GLP-1 receptor agonist activity (cAMP assay)
# Format: cell-based
# EXPERIMENTAL_CONDITIONS: hGLP-1R/CHO-K1 cells, cAMP increase, 37° C. 1 hour
Note on pEC50: it is the negative log10 of concentration, concentration in mol/L.

Return pEC50 measured with Human GLP-1 receptor (Homo sapiens, UniProt P43220) given this compound: O=C(O)c1cc2c(cc1F)nc(CN1CCc3cc(C(F)(F)F)c(OCc4ccc(Cl)cc4F)cc3C1)n2C[C@@H]1CCO1
8.06

Return pEC50 measured with Human GLP-1 receptor (Homo sapiens, UniProt P43220) given this compound: Cc1cc(Cl)ccc1COc1cc2c(cc1C(F)(F)F)CCN(Cc1nc3ccc(C(=O)O)cc3n1C[C@@H]1CCO1)C2
7.74

Return pEC50 measured with Human GLP-1 receptor (Homo sapiens, UniProt P43220) given this compound: O=C(O)c1ccc2nc(CN3CCc4cc(C(F)(F)F)c(OCc5ccc(C(F)(F)F)cc5)cc4C3)n(C[C@@H]3CCO3)c2c1
7.67

Return pEC50 measured with Human GLP-1 receptor (Homo sapiens, UniProt P43220) given this compound: Cc1ccc(COc2cc3c(cc2C(F)(F)F)CCN(Cc2nc4ccc(C(=O)O)cc4n2C[C@@H]2CCO2)C3)cc1
8.35

Return pEC50 measured with Human GLP-1 receptor (Homo sapiens, UniProt P43220) given this compound: Cc1nc(COc2cc3c(cc2C(F)(F)F)CCN(Cc2nc4ccc(C(=O)O)cc4n2C[C@@H]2CCO2)C3)cs1
7.16

Return pEC50 measured with Human GLP-1 receptor (Homo sapiens, UniProt P43220) given this compound: COc1cc(Cl)ccc1COc1cc2c(cc1C(F)(F)F)CCN(Cc1nc3ccc(C(=O)O)cc3n1C[C@@H]1CCO1)C2
8.91

Return pEC50 measured with Human GLP-1 receptor (Homo sapiens, UniProt P43220) given this compound: COc1ccc(COc2cc3c(cc2C(F)(F)F)CCN(Cc2nc4c(F)cc(C(=O)O)cc4n2C[C@@H]2CCO2)[C@H]3C)cc1
8.78

Return pEC50 measured with Human GLP-1 receptor (Homo sapiens, UniProt P43220) given this compound: C[C@H]1c2cc(OCc3ccc(C4CC4)cc3)c(C(F)(F)F)cc2CCN1Cc1nc2c(F)cc(C(=O)O)cc2n1C[C@@H]1CCO1
8.76

Return pEC50 measured with Human GLP-1 receptor (Homo sapiens, UniProt P43220) given this compound: O=C(O)c1ccc2nc(CN3CCc4cc(C(F)(F)F)c(OCc5ccccc5)cc4C3)n(C[C@@H]3CCO3)c2c1
7.43

Return pEC50 measured with Human GLP-1 receptor (Homo sapiens, UniProt P43220) given this compound: COc1ccc(COc2cc3c(cc2C(F)(F)F)CCN(Cc2nc4ccc(C(=O)O)cc4n2C[C@@H]2CCO2)C3)cc1
8.32

Return pEC50 measured with Human GLP-1 receptor (Homo sapiens, UniProt P43220) given this compound: O=C(O)c1ccc2nc(CN3CCc4cc(C(F)(F)F)c(OCc5ccc(Cl)c(F)c5F)cc4C3)n(C[C@@H]3CCO3)c2c1
7.52

Return pEC50 measured with Human GLP-1 receptor (Homo sapiens, UniProt P43220) given this compound: COc1cc(Cl)ccc1COc1cc2c(cc1C(F)(F)F)CCN(Cc1nc3ccc(C(=O)O)nc3n1C[C@@H]1CCO1)[C@H]2C
9.43

Return pEC50 measured with Human GLP-1 receptor (Homo sapiens, UniProt P43220) given this compound: CS(=O)(=O)c1ccc(COc2cc3c(cc2C(F)(F)F)CCN(Cc2nc4ccc(C(=O)O)cc4n2C[C@@H]2CCO2)C3)cc1
7.75

----------
# TARGET_UNDER_TEST: Human GLP-1 receptor (Homo sapiens)
# Construct: expressed in transfected cells
# PROCEDURE_DETAILS: Measurement of GLP-1 receptor agonist activity (cAMP assay)
# Format: cell-based
# EXPERIMENTAL_CONDITIONS: CHO-K1, maximum effect, cAMP increase in GLP-1 R/CHO-K1 cells; 2 nM human GLP-1 (7-36) = 100%, DMSO only = 0%; read-out: Emax
MEASURED_PARAMETER: Emax (%)
Response body: numeric value in %, unit text excluded.

Return Emax measured with Human GLP-1 receptor (Homo sapiens) given this compound: C[C@H]1c2nc(OCc3ccc(Cl)cc3)c(C(F)(F)F)cc2CCN1Cc1nc2c(F)cc(C(=O)O)cc2n1C[C@@H]1CCO1
95.3

Return Emax measured with Human GLP-1 receptor (Homo sapiens) given this compound: O=C(O)c1ccc2nc(CN3CCc4cc(C(F)(F)F)c(OCc5cc(F)c(Cl)cc5F)nc4C3)n(C[C@@H]3CCO3)c2n1
107

Return Emax measured with Human GLP-1 receptor (Homo sapiens) given this compound: COc1cc(C(=O)O)cc2c1nc(CN1CCc3cc(C(F)(F)F)c(OCc4ccc(C5CC5)cc4)cc3[C@@H]1C)n2C[C@@H]1CCO1
106

Return Emax measured with Human GLP-1 receptor (Homo sapiens) given this compound: COc1cc(C(=O)O)cc2c1nc(CN1CCc3cc(C(F)(F)F)c(OCc4ccc(C#N)cc4F)nc3[C@@H]1C)n2C[C@@H]1CCO1
116

Return Emax measured with Human GLP-1 receptor (Homo sapiens) given this compound: COc1cc(C(=O)O)cc2c1nc(CN1CCc3cc(C(F)(F)F)c(OCc4c(F)cc(Cl)cc4F)nc3[C@@H]1C)n2C[C@@H]1CCO1
96

Return Emax measured with Human GLP-1 receptor (Homo sapiens) given this compound: O=C(O)c1ccc2nc(CN3CCc4cc(C(F)(F)F)c(OCc5ccccc5Cl)nc4C3)n(C[C@@H]3CCO3)c2c1
96.3

Return Emax measured with Human GLP-1 receptor (Homo sapiens) given this compound: Cc1ccc(COc2cc3c(cc2Cl)CCN(Cc2nc4ccc(C(=O)O)nc4n2C[C@@H]2CCO2)[C@H]3C)cc1
94

Return Emax measured with Human GLP-1 receptor (Homo sapiens) given this compound: COc1cc(Cl)ccc1COc1nc2c(cc1C(F)(F)F)CCN(Cc1nc3c(OC)cc(C(=O)O)cc3n1C[C@@H]1CCO1)C2
115

Return Emax measured with Human GLP-1 receptor (Homo sapiens) given this compound: COc1cc(C(=O)O)cc2c1nc(CN1CCc3cc(C(F)(F)F)c(OCc4ccc(Cl)cn4)nc3[C@@H]1C)n2C[C@@H]1CCO1
135

Return Emax measured with Human GLP-1 receptor (Homo sapiens) given this compound: O=C(O)c1ccc2nc(CN3CCc4cc(C(F)(F)F)c(OCc5ccc(Cl)cc5)nc4C3)n(C[C@@H]3CCO3)c2c1
121

Return Emax measured with Human GLP-1 receptor (Homo sapiens) given this compound: C[C@H]1c2nc(OCc3ccc(Cl)cn3)c(C(F)(F)F)cc2CCN1Cc1nc2ccc(C(=O)O)nc2n1C[C@@H]1CCO1
107

Return Emax measured with Human GLP-1 receptor (Homo sapiens) given this compound: C[C@H]1c2nc(OCc3ccc(Cl)cc3Cl)c(C(F)(F)F)cc2CCN1Cc1nc2ccc(C(=O)O)c(F)c2n1C[C@@H]1CCO1
111

Return Emax measured with Human GLP-1 receptor (Homo sapiens) given this compound: COc1cc(C(=O)O)cc2c1nc(CN1CCc3cc(C(F)(F)F)c(OCc4ccc(Cl)cn4)cc3[C@@H]1C)n2C[C@@H]1CCO1
104
